Heads up, these compounds all have IC50 values measured for UniProtKB O14965.

[[record]]
compound = "CCS(=O)(=O)c1cccc(-c2cc(NC(=O)CCN(C)C)c(OC)c3[nH]c4ncc(C)cc4c23)c1 [Compound 240]"
result = "20 to 50 nM"

[[record]]
compound = "CCS(=O)(=O)c1cccc(-c2ccc(OC)c3[nH]c4ncc(Cl)cc4c23)c1 [Compound 217]"
result = "< 20 nM"

[[record]]
compound = "COc1ccc(-c2cccc(NC(C)=O)c2)c2c1[nH]c1ncc(C)cc12 [Compound 161]"
result = "50 to 100 nM"

[[record]]
compound = "CCS(=O)(=O)c1cccc(-c2cnc(NCCN(C)C)c3[nH]c4ncc(C)cc4c23)c1 [Compound 41]"
result = "50 to 100 nM"

[[record]]
compound = "CCS(=O)(=O)c1cccc(-c2cc(C(=O)NCCN(C)C)c(C)c3[nH]c4ncc(C)cc4c23)c1 [Compound 87]"
result = "20 to 50 nM"


Quote IC50 with test system UniProtKB O14965 for CCS(=O)(=O)c1cccc(-c2cc(F)c(OCCN(C)C)c3[nH]c4ncc(C)cc4c23)c1 [Compound 203]
< 20 nM

Quote IC50 with test system UniProtKB O14965 for CCS(=O)(=O)c1cccc(-c2ccc(OCC3CCN(C)CC3)c(I)c2)c1 [Compound 197]
< 20 nM

Quote IC50 with test system UniProtKB O14965 for CCS(=O)(=O)c1cccc(-c2cnc(OCC3CCN(C)CC3)c3[nH]c4ncc(C)cc4c23)c1 [Compound 53]
< 20 nM

Quote IC50 with test system UniProtKB O14965 for CCS(=O)(=O)c1cccc(-c2ccc(OCC3CCN(C)CC3)c3[nH]c4ncc(Cl)cc4c23)c1 [Compound 199]
20 to 50 nM

Quote IC50 with test system UniProtKB O14965 for Cc1cnc(Nc2cc(Cl)ccc2OCC2CCN(C)CC2)c(Br)c1 [Compound 174]
< 20 nM

---

TARGET_ENTITY: AIK (Homo sapiens)
Sequence (O14965 1-403): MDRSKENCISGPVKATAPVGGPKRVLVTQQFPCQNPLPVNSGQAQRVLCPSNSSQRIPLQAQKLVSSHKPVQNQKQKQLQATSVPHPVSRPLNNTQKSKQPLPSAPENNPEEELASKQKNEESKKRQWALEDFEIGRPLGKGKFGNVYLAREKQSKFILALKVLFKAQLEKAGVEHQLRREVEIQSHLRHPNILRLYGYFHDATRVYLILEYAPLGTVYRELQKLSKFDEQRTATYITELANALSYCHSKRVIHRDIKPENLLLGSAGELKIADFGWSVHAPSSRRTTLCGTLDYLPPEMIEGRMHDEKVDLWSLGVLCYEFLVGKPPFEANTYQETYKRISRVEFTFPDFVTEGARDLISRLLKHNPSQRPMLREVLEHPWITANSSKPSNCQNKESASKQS
ASSAY_READOUT: IC50

[[record]]
compound_string = "CCOc1ncc(-c2cccc(S(=O)(=O)CC)c2)c2c1[nH]c1ncc(C)cc12"
result = "< 20 nM"

[[record]]
compound_string = "CCS(=O)(=O)c1cccc(-c2ccc(C)c3[nH]c4ncccc4c23)c1"
result = "20 to 50 nM"


Quote IC50 with test system AIK (Homo sapiens) for COc1ccc(Cl)cc1Nc1ncc(C)cc1Br
< 20 nM

Taken from patent US8119655B2.
